# Tested on: COLO 205
# assay-protocol: Cytotoxicity against human COLO205 cells assessed as reduction in cell viability after 24 hrs by MTT assay
# Format: functional, cell-based
# assay-conditions: COLO 205, 24 h
reported-metric: IC50 (µg/mL)
One number for each entry, in µg/mL.

[
  {
    "compound": "COc1cc2nc(N3CCOCC3)nc(NS(=O)(=O)C3CC3)c2cc1OC",
    "IC50 [µg/mL]": 49.1
  },
  {
    "compound": "COc1cc2nc(Cl)nc(NS(=O)(=O)c3cccs3)c2cc1OC",
    "IC50 [µg/mL]": 27.5
  },
  {
    "compound": "COc1cc2nc(N3CCCC3)nc(NS(=O)(=O)C3CC3)c2cc1OC",
    "IC50 [µg/mL]": 10.2
  }
]

API: the following record is the query input.
**Q:** IC50 lookup needed for COc1cc([C@@H]2c3cc4c(cc3[C@@H](O[C@@H]3O[C@@H]5CO[C@@H](C)O[C@H]5[C@H](O)[C@H]3O)[C@H]3COC(=O)[C@H]23)OCO4)cc(OC)c1O [ETOPOSIDE] , thanks.
**A:** 5.12
